test system: Staphylococcus aureus; experiment: Bactericidal activity against Staphylococcus aureus MLS16 MTCC 2940 incubated for 24 hrs at 37 degC; type: functional; details: MLS16 MTCC 2940, 24 h
Recorded MBC values for a group of compounds are listed next.
Answer in µM, number only, no unit symbol.

Worked examples, 5 compounds total:
> print(dat)
                                   compound  experimental.result
1  O=C(CBr)NCC1=Cc2ccccc2OC1(O)C(F)(F)F (stereo not drawn)                 19.1
2  O=C(O)c1cn(C2CC2)c2cc(N3CCNCC3)c(F)cc2c1=O                  2.7
3  O=C(CBr)NCC1=Cc2cc(Br)ccc2OC1(O)C(F)(F)F (stereo not drawn)                    4
4  O=C(Cc1ccc(Br)cc1)NCC1=Cc2cc(Br)ccc2OC1(O)C(F)(F)F (stereo not drawn)                 14.3
5  O=C(Cc1ccc(Br)cc1)NCC1=Cc2ccccc2OC1(O)C(F)(F)F (stereo not drawn)                 67.2

GET /values?readout=MBC&system=Staphylococcus aureus&item= O=C(Cc1cccc(Cl)c1)NCC1=Cc2cc(Br)ccc2OC1(O)C(F)(F)F (stereo not drawn)
37.1

How about this compound: O=C(Cc1ccccc1)NCC1=Cc2cc(Br)ccc2OC1(O)C(F)(F)F (stereo not drawn)
67.2

Item: O=C(Cc1cccc(Cl)c1)NCC1=Cc2ccccc2OC1(O)C(F)(F)F (stereo not drawn)
37.1
